Data provenance: the CheMixHub drug solubility set

Assay: xn = mol fraction of the nth substance listed, in the solute-free solvent
Details: 298.15 K; x2 = 0.1666
Everything with solubility (g/100 g solution) lower than 0.3 is NOT MET; everything else, including exactly 0.3, is MET.

Solved entries:
{"compound": "c1ccc2[nH]c(-c3cscn3)nc2c1 + CCCO + O", "label": "NOT MET"}
{"compound": "c1ccc2[nH]c(-c3cscn3)nc2c1 + CC(C)O + O", "label": "NOT MET"}
{"compound": "Nc1nccnc1Cl + CC(C)O + O", "label": "MET"}
{"compound": "Cc1[nH]c(=O)c(C#N)cc1-c1ccncc1 + CC(C)O + O", "label": "NOT MET"}
{"compound": "CN1CCN(C2=Nc3cc(Cl)ccc3Nc3ccccc32)CC1 + CC(C)O + O", "label": "NOT MET"}

IN: Say whether Nc1cccc(S(=O)(=O)c2cccc(N)c2)c1 + CC(C)O + O shows solubility (g/100 g solution) of 0.3 or more.
OUT: MET

====

Assay: xn = mol fraction of the nth substance listed, in the solute-free solvent
Settings: 288.15 K; x2 = 0.1666
Collected solubility (g/100 g solution) values appear next to each entry.

Worked cases, solubility (g/100 g solution) given:
{"molecule": "Nc1cccc(S(=O)(=O)c2cccc(N)c2)c1 + CC(C)O + O", "result": 0.312}
{"molecule": "CN1CCN(C2=Nc3cc(Cl)ccc3Nc3ccccc32)CC1 + CC(C)O + O", "result": 0.199}
{"molecule": "Cc1[nH]c(=O)c(C#N)cc1-c1ccncc1 + CC(C)O + O", "result": 0.00523}
{"molecule": "c1ccc2[nH]c(-c3cscn3)nc2c1 + CC(C)O + O", "result": 0.0456}
{"molecule": "Nc1nccnc1Cl + CC(C)O + O", "result": 0.313}

Kindly consider the entry below.
The value of solubility (g/100 g solution) measured for the molecule c1ccc2[nH]c(-c3cscn3)nc2c1 + CCCO + O turned out to be 0.09

====

Collected solubility (g/100 g solution) values appear next to each entry.
Assay: xn = mol fraction of the nth substance listed, in the solute-free solvent
Conditions: 303.15 K; x2 = 0.2307
// no unit string in output, number only

{"compound": "c1ccc2[nH]c(-c3cscn3)nc2c1 + CCCO + O", "quantitative_result": 0.249}
{"compound": "Nc1nccnc1Cl + CC(C)O + O", "quantitative_result": 0.724}
{"compound": "c1ccc2[nH]c(-c3cscn3)nc2c1 + CC(C)O + O", "quantitative_result": 0.121}
{"compound": "CN1CCN(C2=Nc3cc(Cl)ccc3Nc3ccccc32)CC1 + CC(C)O + O", "quantitative_result": 0.578}
{"compound": "Cc1[nH]c(=O)c(C#N)cc1-c1ccncc1 + CC(C)O + O", "quantitative_result": 0.0105}

Kindly consider the entry below.
The value of solubility (g/100 g solution) measured for the compound Nc1cccc(S(=O)(=O)c2cccc(N)c2)c1 + CC(C)O + O turned out to be 0.816

====

Experiment: xn = mol fraction of the nth substance listed, in the solute-free solvent
Conditions: 293.15 K; x2 = 0.2
Collected solubility (g/100 g solution) values appear next to each entry.
// no unit string in output, number only

{"molecule": "CC(N)C(=O)O (stereo not drawn) + O + CCO", "assay_endpoint": "solubility (g/100 g solution)", "quantitative_result": 0.0951}
{"molecule": "S=c1[nH]ncs1 + CC(C)=O + O", "assay_endpoint": "solubility (g/100 g solution)", "quantitative_result": 10.6}

The value of solubility (g/100 g solution) measured for the molecule CC(N)C(=O)O (stereo not drawn) + O + CC(C)=O turned out to be 0.0463

====

Collected solubility (g/100 g solution) values appear next to each entry.
Experiment: xn = mol fraction of the nth substance listed, in the solute-free solvent
Settings: 283.15 K; x2 = 0.3698

The value of solubility (g/100 g solution) measured for the compound COc1cc2c(cc1OC)-c1cc3ccc(OC)c(OC)c3c[n+]1CC2.[Cl-] + CCO + O turned out to be 1.72

====

Experiment: xn = mol fraction of the nth substance listed, in the solute-free solvent
Conditions: 308.15 K; x2 = 0.2068
assay_endpoint: solubility (g/100 g solution)
// no unit string in output, number only

Worked cases, solubility (g/100 g solution) given:
{"compound": "CC(C)OC(=O)C(C)NP(=O)(OCC1OC(n2ccc(=O)[nH]c2=O)C(C)(F)C1O)Oc1ccccc1 (centres undefined) + CCO + O", "solubility (g/100 g solution)": 21.3}
{"compound": "COc1cc2c(cc1OC)-c1cc3ccc(OC)c(OC)c3c[n+]1CC2.[Cl-] + CCO + O", "solubility (g/100 g solution)": 3.94}
{"compound": "Cc1[nH]c(=O)c(C#N)cc1-c1ccncc1 + CCO + O", "solubility (g/100 g solution)": 0.00395}

The value of solubility (g/100 g solution) measured for the compound Nc1cccc(S(=O)(=O)c2cccc(N)c2)c1 + CCO + O turned out to be 1.02

====

Test: xn = mol fraction of the nth substance listed, in the solute-free solvent
Conditions: 288.15 K; x2 = 0.4772
assay_endpoint: solubility (g/100 g solution)
// no unit string in output, number only

The value of solubility (g/100 g solution) measured for the compound CC(C)OC(=O)C(C)NP(=O)(OCC1OC(n2ccc(=O)[nH]c2=O)C(C)(F)C1O)Oc1ccccc1 (centres undefined) + CCO + O turned out to be 16.6

The value of solubility (g/100 g solution) measured for the compound COc1cc2c(cc1OC)-c1cc3ccc(OC)c(OC)c3c[n+]1CC2.[Cl-] + CCO + O turned out to be 2.23

The value of solubility (g/100 g solution) measured for the compound Nc1cccc(S(=O)(=O)c2cccc(N)c2)c1 + CCO + O turned out to be 0.93

The value of solubility (g/100 g solution) measured for the compound Cc1[nH]c(=O)c(C#N)cc1-c1ccncc1 + CCO + O turned out to be 0.00461

====

Experiment: xn = mol fraction of the nth substance listed, in the solute-free solvent
Details: 278.15 K; x2 = 0.4
Collected solubility (g/100 g solution) values appear next to each entry.
// no unit string in output, number only

Worked cases, solubility (g/100 g solution) given:
{"molecule": "Cc1ncc(C[n+]2csc(CCO)c2C)c(N)n1.O=[N+]([O-])[O-] + O + CC(C)=O", "solubility (g/100 g solution)": 0.169}
{"molecule": "S=c1[nH]ncs1 + CC(C)=O + O", "solubility (g/100 g solution)": 15.7}
{"molecule": "CCCCCOC(=O)Nc1nc(=O)n(C2OC(C)C(O)C2O)cc1F (centres undefined) + CCOC(C)=O + CCCCCC", "solubility (g/100 g solution)": 0.113}
{"molecule": "S=c1[nH]ncs1 + CO + O", "solubility (g/100 g solution)": 2.53}
{"molecule": "S=c1[nH]ncs1 + CCCO + O", "solubility (g/100 g solution)": 6.2}
{"molecule": "Cc1ncc(C[n+]2csc(CCO)c2C)c(N)n1.O=[N+]([O-])[O-] + O + CC(C)O", "solubility (g/100 g solution)": 0.0937}

The value of solubility (g/100 g solution) measured for the molecule S=c1[nH]ncs1 + CCO + O turned out to be 5.21

The value of solubility (g/100 g solution) measured for the molecule CCCCCOC(=O)Nc1nc(=O)n(C2OC(C)C(O)C2O)cc1F (centres undefined) + CCOC(C)=O + CCCCCCC turned out to be 0.0475

The value of solubility (g/100 g solution) measured for the molecule Cc1ncc(C[n+]2csc(CCO)c2C)c(N)n1.O=[N+]([O-])[O-] + O + CO turned out to be 0.678

====

Experiment: xn = mol fraction of the nth substance listed, in the solute-free solvent
Settings: 293.15 K; x2 = 0.3
Everything with solubility (g/100 g solution) lower than 2 is Criterion not met; everything else, including exactly 2, is Criterion met.

{"compound": "CC(N)C(=O)O (stereo unspecified) + O + CC(C)=O", "label": "Criterion not met"}

IN: Say whether CC(N)C(=O)O (stereo unspecified) + O + CC(C)O shows solubility (g/100 g solution) of 2 or more.
OUT: Criterion not met

IN: Say whether S=c1[nH]ncs1 + CC(C)=O + O shows solubility (g/100 g solution) of 2 or more.
OUT: Criterion met

IN: Say whether OCCN(CCO)c1nc(N2CCCCC2)c2nc(N(CCO)CCO)nc(N3CCCCC3)c2n1 + CCO + O shows solubility (g/100 g solution) of 2 or more.
OUT: Criterion not met

IN: Say whether Cc1ncc(C[n+]2csc(CCO)c2C)c(N)n1.O=[N+]([O-])[O-] + O + CO shows solubility (g/100 g solution) of 2 or more.
OUT: Criterion not met

IN: Say whether S=c1[nH]ncs1 + CCO + O shows solubility (g/100 g solution) of 2 or more.
OUT: Criterion met
